Reference source: ChEMBL document CHEMBL4680187

# target_desc: Ephrin type-A receptor 2 (Mus musculus)
# Sequence (Q03145 whole entry): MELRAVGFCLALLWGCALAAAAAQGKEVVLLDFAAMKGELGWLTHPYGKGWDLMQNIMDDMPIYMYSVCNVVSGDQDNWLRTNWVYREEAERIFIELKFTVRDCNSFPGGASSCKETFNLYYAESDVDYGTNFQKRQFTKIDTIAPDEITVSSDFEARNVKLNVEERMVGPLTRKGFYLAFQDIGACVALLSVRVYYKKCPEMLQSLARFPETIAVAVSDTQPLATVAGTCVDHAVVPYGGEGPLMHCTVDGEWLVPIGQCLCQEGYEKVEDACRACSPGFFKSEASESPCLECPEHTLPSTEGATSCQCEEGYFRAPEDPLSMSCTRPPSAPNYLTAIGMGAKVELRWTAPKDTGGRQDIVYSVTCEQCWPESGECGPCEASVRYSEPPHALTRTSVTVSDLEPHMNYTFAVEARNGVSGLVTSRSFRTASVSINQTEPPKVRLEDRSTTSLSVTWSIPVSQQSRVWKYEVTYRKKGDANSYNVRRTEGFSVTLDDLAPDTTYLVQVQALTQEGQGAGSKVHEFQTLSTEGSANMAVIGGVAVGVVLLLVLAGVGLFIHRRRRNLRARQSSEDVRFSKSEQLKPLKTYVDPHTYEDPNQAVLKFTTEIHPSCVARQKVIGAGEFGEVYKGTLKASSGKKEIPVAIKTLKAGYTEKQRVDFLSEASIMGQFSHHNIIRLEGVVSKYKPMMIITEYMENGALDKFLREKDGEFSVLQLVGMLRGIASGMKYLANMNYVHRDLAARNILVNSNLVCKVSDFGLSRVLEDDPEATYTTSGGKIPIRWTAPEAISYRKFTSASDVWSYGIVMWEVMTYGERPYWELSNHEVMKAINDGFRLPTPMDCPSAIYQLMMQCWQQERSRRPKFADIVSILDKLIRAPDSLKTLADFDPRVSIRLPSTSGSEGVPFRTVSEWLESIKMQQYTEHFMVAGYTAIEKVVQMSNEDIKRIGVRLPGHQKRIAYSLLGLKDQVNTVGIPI
# assay_info: Displacement of biotinylated ephrin-A1-Fc from recombinant mouse c-terminal His6-tagged EphA2 Fc (Ala22 to Ala535 residues) preincubated for 1 hr followed by ephrin-A1-FC addition and measured after 4 hrs by ELISA
readout_name: IC50 (µM)

[P] C[C@H](CCC(=O)O)[C@H]1CC[C@H]2[C@@H]3CC[C@@H]4C[C@H](OC(N)=O)CC[C@]4(C)[C@H]3CC[C@]12C
[Q] CCNC(=O)O[C@@H]1CC[C@@]2(C)[C@H](CC[C@@H]3[C@@H]2CC[C@]2(C)[C@@H]([C@H](C)CCC(=O)N[C@H](CC(=O)O)Cc4c[nH]c5ccccc45)CC[C@@H]32)C1
[R] C[C@H](CCC(=O)O)[C@H]1CC[C@H]2[C@@H]3CC[C@@H]4C[C@@H](OC(N)=O)CC[C@]4(C)[C@H]3CC[C@]12C
# descending IC50 order for the listed compounds Thanks in advance for listing the labels in the requested order. P, R, Q
(P: 17 µM, R: 9.1 µM, Q: 0.95 µM)

* * *

# target_desc: Ephrin type-B receptor 6 (Mus musculus, UniProt O08644)
# Sequence (O08644 whole entry): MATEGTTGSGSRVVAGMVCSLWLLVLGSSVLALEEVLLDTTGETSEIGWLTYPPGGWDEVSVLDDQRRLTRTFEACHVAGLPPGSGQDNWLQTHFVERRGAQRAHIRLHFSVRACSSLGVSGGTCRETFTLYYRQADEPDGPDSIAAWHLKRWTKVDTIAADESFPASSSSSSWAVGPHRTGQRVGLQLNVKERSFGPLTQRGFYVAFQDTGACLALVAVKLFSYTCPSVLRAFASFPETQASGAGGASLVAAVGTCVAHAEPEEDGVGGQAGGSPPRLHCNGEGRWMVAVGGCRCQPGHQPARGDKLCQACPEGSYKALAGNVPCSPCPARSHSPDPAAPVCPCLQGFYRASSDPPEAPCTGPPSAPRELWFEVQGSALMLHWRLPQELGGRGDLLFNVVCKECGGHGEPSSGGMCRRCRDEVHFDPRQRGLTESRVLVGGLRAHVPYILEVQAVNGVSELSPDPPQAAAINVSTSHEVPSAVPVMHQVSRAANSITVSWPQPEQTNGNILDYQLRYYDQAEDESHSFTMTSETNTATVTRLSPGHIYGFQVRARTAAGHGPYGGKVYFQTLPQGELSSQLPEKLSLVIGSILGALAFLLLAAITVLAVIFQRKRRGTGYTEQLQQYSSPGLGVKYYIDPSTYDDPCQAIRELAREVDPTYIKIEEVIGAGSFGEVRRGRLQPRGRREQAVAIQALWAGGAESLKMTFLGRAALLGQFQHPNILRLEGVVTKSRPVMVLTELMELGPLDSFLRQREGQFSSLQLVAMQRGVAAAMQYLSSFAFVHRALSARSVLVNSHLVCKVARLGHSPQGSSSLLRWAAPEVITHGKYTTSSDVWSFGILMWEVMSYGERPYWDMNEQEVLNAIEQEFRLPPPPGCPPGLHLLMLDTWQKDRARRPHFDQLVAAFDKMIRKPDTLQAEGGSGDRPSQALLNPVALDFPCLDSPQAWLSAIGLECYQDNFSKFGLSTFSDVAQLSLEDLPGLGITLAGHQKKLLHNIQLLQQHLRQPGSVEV
# assay_info: Displacement of biotinylated ephrin-B1-Fc from mouse EphB6 Fc preincubated for 1 hr followed by ephrin-B1-FC addition and measured after 4 hrs by ELISA
pIC50: −log10 of the molar value.
readout_name: pIC50

Consider the compound CCNC(=O)O[C@@H]1CC[C@@]2(C)[C@H](CC[C@@H]3[C@@H]2CC[C@]2(C)[C@@H]([C@H](C)CCC(=O)N[C@H](CC(=O)O)Cc4c[nH]c5ccccc45)CC[C@@H]32)C1 and give its recorded pIC50. < 4.52
